Biological target: human vasopressin V1a receptor subtype (Homo sapiens, UniProt P37288)
Construct: host or cells: CHO cells, stably transfected (pZeoSV vector for the Thibonnier line)
Sequence (P37288 whole entry): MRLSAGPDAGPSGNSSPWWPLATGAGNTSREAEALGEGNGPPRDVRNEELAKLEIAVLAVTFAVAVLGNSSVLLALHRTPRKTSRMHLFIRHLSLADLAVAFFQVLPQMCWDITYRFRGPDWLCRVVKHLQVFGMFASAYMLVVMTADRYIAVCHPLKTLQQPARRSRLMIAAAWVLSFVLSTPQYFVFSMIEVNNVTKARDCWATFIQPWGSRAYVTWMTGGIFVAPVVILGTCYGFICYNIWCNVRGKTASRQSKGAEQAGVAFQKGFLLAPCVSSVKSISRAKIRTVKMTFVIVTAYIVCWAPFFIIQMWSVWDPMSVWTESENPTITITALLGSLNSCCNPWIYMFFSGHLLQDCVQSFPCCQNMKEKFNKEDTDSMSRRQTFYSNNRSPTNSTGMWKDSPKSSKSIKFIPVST
Assay: Vasopressin binding in CHO cell membranes expressing human vasopressin V1a subtype receptors ([3H]Manning ligand radioligand binding)
Settings: 100 nM
Procedure: Vasopressin Binding in Chinese Hamster Ovary Cell Membranes Expressing Human Vasopressin V1a Subtype Receptors The trypsin is removed by aspiration and the cells dislodged by tapping. Cell Culture medium (e.g. 30 mL for 1:30 split) is immediately added and mixed well to inactivate trypsin. […] Binding data is either reported as percent inhibition at a certain concentration or if an IC50 was calculated, as a nanomolar concentration.
measuredQuantity: inhibition at 0.1 µM
A bare number is not enough; add the unit after it.

>>> experimentalvalue("COc1cccc(-c2cc(OC)c(C(=O)N3Cc4ccc(C(=O)NCc5cccnc5)n4Cc4ccccc43)cc2Cl)c1")
"-6%"
>>> experimentalvalue("COc1ccccc1-c1ccc(C(=O)N2Cc3ccc(C(=O)N(C)CCc4ccccn4)n3Cc3ccccc32)cc1OC")
"21%"
>>> experimentalvalue("COc1cc(-c2ccccc2C)c(Cl)cc1C(=O)N1Cc2ccc(C(=O)NCc3ccncc3)n2Cc2ccccc21")
"0%"
>>> experimentalvalue("COc1cc(C(=O)N2Cc3ccc(C(=O)NCc4cccnc4)n3Cc3ccccc32)ccc1-c1cccc2ccccc12")
"11%"
>>> experimentalvalue("COc1cccc(-c2cc(OC)c(C(=O)N3Cc4ccc(C(=O)N5CCN(c6ccncc6)CC5)n4Cc4ccccc43)cc2Cl)c1")
"6%"

Input: Report value only: inhibition at 0.1 µM, human vasopressin V1a receptor subtype (Homo sapiens, UniProt P37288), Cc1cc(C(=O)N2Cc3ccc(C(=O)N(C)CCc4ccccn4)n3Cc3ccccc32)ccc1-c1ccccc1C(F)(F)F
Output: 63%

Input: Report value only: inhibition at 0.1 µM, human vasopressin V1a receptor subtype (Homo sapiens, UniProt P37288), COc1cc(C(=O)N2Cc3ccc(C(=O)NCc4ccccn4)n3Cc3ccccc32)ccc1-c1cccc2ccccc12
Output: 6%

###

Biological target: human vasopressin V1a receptor subtype (Homo sapiens, UniProt P37288)
Construct: host or cells: CHO cells, stably transfected (pZeoSV vector for the Thibonnier line)
Assay: Vasopressin binding in CHO cell membranes expressing human vasopressin V1a subtype receptors ([3H]Manning ligand radioligand binding)
Details: 100 nM
Given measured V1a % inhibition @ 100 nM, output yes (1) if it is greater than or equal to 20% and no (0) if not.

Use these answered entries as a reference point.
>>> group("COc1cccc(-c2ccc(C(=O)N3Cc4ccc(C(=O)NCc5ccncc5)n4Cc4ccccc43)cc2OC)c1 [Example 98]")
"yes (1)"
>>> group("COc1cccc(-c2ccc(C(=O)N3Cc4ccc(C(=O)N(C)Cc5cccnc5)n4Cc4ccccc43)cc2OC)c1 [Example 110]")
"yes (1)"

Input: Does COc1cc(C(=O)N2Cc3ccc(C(=O)N4CCN(c5ccccn5)CC4)n3Cc3ccccc32)ccc1-c1cccc2ccccc12 [Example 83] have a reported V1a % inhibition @ 100 nM of at least 20%?
Output: no (0)

###

Biological target: human vasopressin V1a receptor subtype (Homo sapiens)
Construct: host or cells: CHO cells, stably transfected (pZeoSV vector for the Thibonnier line)
Test: Vasopressin binding in CHO cell membranes expressing human vasopressin V1a subtype receptors ([3H]Manning ligand radioligand binding)
Details: 100 nM
Given measured inhibition at 0.1 µM, output Y if it is greater than or equal to 10% and N if not.

Use these answered entries as a reference point.
>>> group("O=C(NCc1ccccn1)c1ccc2n1Cc1ccccc1N(C(=O)c1ccc(-c3cccc4ccccc34)cc1Cl)C2")
"N"
>>> group("O=C(c1ccc2n1Cc1ccccc1N(C(=O)c1ccc(-c3cccc4ccccc34)cc1Cl)C2)N1CCN(c2ccccn2)CC1")
"N"
>>> group("COc1cc(C(=O)N2Cc3ccc(C(=O)N(C)CCc4ccccn4)n3Cc3ccccc32)ccc1-n1c(C)ccc1C")
"Y"
>>> group("COc1cc(C(=O)N2Cc3ccc(C(=O)NCc4ccccn4)n3Cc3ccccc32)ccc1-c1ccccc1C")
"Y"
>>> group("COc1ccccc1-c1ccc(C(=O)N2Cc3ccc(C(=O)N4CCN(c5ccccn5)CC4)n3Cc3ccccc32)cc1OC")
"N"
>>> group("COc1cc(C(=O)N2Cc3ccc(C(=O)NCc4ccncc4)n3Cc3ccccc32)ccc1-c1ccccc1C")
"Y"

Input: Does Cc1cc(C(=O)N2Cc3ccc(C(=O)NCc4cccnc4)n3Cc3ccccc32)ccc1-c1ccccc1C(F)(F)F have a reported inhibition at 0.1 µM of at least 10%?
Output: N

Input: Does COc1cc(C(=O)N2Cc3ccc(C(=O)N4CCN(c5ccccn5)CC4)n3Cc3ccccc32)ccc1-n1c(C)ccc1C have a reported inhibition at 0.1 µM of at least 10%?
Output: N

###

Target: human vasopressin V1a receptor subtype (Homo sapiens, UniProt P37288)
Construct: host or cells: CHO cells, stably transfected (pZeoSV vector for the Thibonnier line)
Assay: Vasopressin binding in CHO cell membranes expressing human vasopressin V1a subtype receptors ([3H]Manning ligand radioligand binding)
Settings: 100 nM
Given measured inhibition at 0.1 µM, output label 1 if it is greater than or equal to 20% and label 0 if not.

>>> group("COc1cc(C(=O)N2Cc3ccc(C(=O)N(C)CCc4ccncc4)n3Cc3ccccc32)ccc1-n1c(C)ccc1C")
"label 0"
>>> group("COc1cc(C(=O)N2Cc3ccc(C(=O)NCCc4ccccn4)n3Cc3ccccc32)ccc1-c1ccccc1C")
"label 1"

Input: Does COc1cccc(-c2cc(OC)c(C(=O)N3Cc4ccc(C(=O)N5CCN(c6ccccn6)CC5)n4Cc4ccccc43)cc2Cl)c1 have a reported inhibition at 0.1 µM of at least 20%?
Output: label 0

Input: Does COc1cccc(-c2ccc(C(=O)N3Cc4ccc(C(=O)N5CCN(c6ccccn6)CC5)n4Cc4ccccc43)cc2OC)c1 have a reported inhibition at 0.1 µM of at least 20%?
Output: label 0

Input: Does CN(Cc1cccnc1)C(=O)c1ccc2n1Cc1ccccc1N(C(=O)c1ccc(-c3cccc4ccccc34)cc1Cl)C2 have a reported inhibition at 0.1 µM of at least 20%?
Output: label 0

Input: Does Cc1ccccc1-c1ccc(C(=O)N2Cc3ccc(C(=O)NCc4cccnc4)n3Cc3ccccc32)cc1 have a reported inhibition at 0.1 µM of at least 20%?
Output: label 0

Input: Does O=C(NCCc1ccccn1)c1ccc2n1Cc1ccccc1N(C(=O)c1ccc(-c3cccc4ccccc34)cc1Cl)C2 have a reported inhibition at 0.1 µM of at least 20%?
Output: label 0

Input: Does COc1ccccc1-c1ccc(C(=O)N2Cc3ccc(C(=O)N(C)CCc4ccccn4)n3Cc3ccccc32)cc1 have a reported inhibition at 0.1 µM of at least 20%?
Output: label 1

Input: Does COc1cccc(-c2ccc(C(=O)N3Cc4ccc(C(=O)N(C)CCc5ccncc5)n4Cc4ccccc43)cc2OC)c1 have a reported inhibition at 0.1 µM of at least 20%?
Output: label 1

###

Target: human vasopressin V1a receptor subtype (Homo sapiens)
Construct: host or cells: CHO cells, stably transfected (pZeoSV vector for the Thibonnier line)
Assay: Vasopressin binding in CHO cell membranes expressing human vasopressin V1a subtype receptors ([3H]Manning ligand radioligand binding)
Settings: 100 nM
Method: Vasopressin Binding in Chinese Hamster Ovary Cell Membranes Expressing Human Vasopressin V1a Subtype Receptors The trypsin is removed by aspiration and the cells dislodged by tapping. Cell Culture medium (e.g. 30 mL for 1:30 split) is immediately added and mixed well to inactivate trypsin. […] Binding data is either reported as percent inhibition at a certain concentration or if an IC50 was calculated, as a nanomolar concentration.
measuredQuantity: inhibition at 0.1 µM (%)
Respond numerically; units are % and should not be typed.

Example compounds with recorded inhibition at 0.1 µM:
>>> experimentalvalue("COc1cccc(-c2ccc(C(=O)N3Cc4ccc(C(=O)N(C)CCc5ccccn5)n4Cc4ccccc43)cc2OC)c1")
54
>>> experimentalvalue("O=C(NCc1cccnc1)c1ccc2n1Cc1ccccc1N(C(=O)c1ccc(-c3cccc4ccccc34)cc1Cl)C2")
-1
>>> experimentalvalue("COc1ccccc1-c1ccc(C(=O)N2Cc3ccc(C(=O)N(C)CCc4ccncc4)n3Cc3ccccc32)cc1")
54

Input: Identify inhibition at 0.1 µM associated with the compound COc1cc(-c2ccccc2C)c(Cl)cc1C(=O)N1Cc2ccc(C(=O)NCc3ccccn3)n2Cc2ccccc21
Output: 0

###

Molecular target: human vasopressin V1a receptor subtype (Homo sapiens, UniProt P37288)
Construct: host or cells: CHO cells, stably transfected (pZeoSV vector for the Thibonnier line)
Test: Vasopressin binding in CHO cell membranes expressing human vasopressin V1a subtype receptors ([3H]Manning ligand radioligand binding)
Settings: 100 nM
Listed molecules paired with reported inhibition at 0.1 µM
Respond numerically; units are % and should not be typed.

>>> experimentalvalue("O=C(c1ccc2n1Cc1ccccc1N(C(=O)c1ccc(-c3cccc4ccccc34)cc1Cl)C2)N1CCN(c2ccncc2)CC1 [Example 124]")
11
>>> experimentalvalue("O=C(NCc1ccncc1)c1ccc2n1Cc1ccccc1N(C(=O)c1ccc(-c3cccc4ccccc34)cc1Cl)C2 [Example 99]")
-7
>>> experimentalvalue("Cc1ccccc1-c1ccc(C(=O)N2Cc3ccc(C(=O)N4CCN(c5ccccn5)CC4)n3Cc3ccccc32)cc1C [Example 76]")
11
>>> experimentalvalue("COc1cc(C(=O)N2Cc3ccc(C(=O)N(C)Cc4cccnc4)n3Cc3ccccc32)ccc1-c1ccccc1C [Example 106]")
68

Input: Identify inhibition at 0.1 µM associated with the molecule COc1cc(-c2ccccc2C)c(Cl)cc1C(=O)N1Cc2ccc(C(=O)N3CCCCC3c3cccnc3)n2Cc2ccccc21 (stereo not drawn) [Example 140]
Output: -3

Input: Identify inhibition at 0.1 µM associated with the molecule COc1cccc(-c2ccc(C(=O)N3Cc4ccc(C(=O)NCc5cccnc5)n4Cc4ccccc43)cc2C)c1 [Example 38]
Output: 0

Input: Identify inhibition at 0.1 µM associated with the molecule COc1cccc(-c2ccc(C(=O)N3Cc4ccc(C(=O)NCc5ccccn5)n4Cc4ccccc43)cc2OC)c1 [Example 33]
Output: 23

Input: Identify inhibition at 0.1 µM associated with the molecule COc1ccccc1-c1ccc(C(=O)N2Cc3ccc(C(=O)N4CCN(c5ccncc5)CC4)n3Cc3ccccc32)cc1OC [Example 122]
Output: 9

Input: Identify inhibition at 0.1 µM associated with the molecule COc1ccccc1-c1ccc(C(=O)N2Cc3ccc(C(=O)N(C)Cc4cccnc4)n3Cc3ccccc32)cc1 [Example 104]
Output: 32
